Origin of the recorded values: ChEMBL document CHEMBL1145498

ΔTm values recorded for Death-associated protein kinase 3 (Homo sapiens) (UniProt O43293)
Your answer should be a plain number; it is taken to be in °C.

Q) May I ask what ΔTm has been recorded for `CC(C)(C)n1nc(-c2ccc(Cl)cc2)c2c(N)ncnc21` ?
A) -1.1

Q) May I ask what ΔTm has been recorded for CC(C)[C@H](CO)Nc1nc(Nc2cc(N)cc(Cl)c2)c2ncn(C(C)C)c2n1 [AMINOPURVALANOL] ?
A) 3.4

Q) May I ask what ΔTm has been recorded for Cn1cnc2c(NCc3ccccc3)nc(NCCO)nc21 [OLOMOUCINE] ?
A) -0.1

Q) May I ask what ΔTm has been recorded for `O=S(=O)(c1cccc2c(Cl)cccc12)N1CCCNCC1` ?
A) 2.5

Q) May I ask what ΔTm has been recorded for `Cc1ccc(NC(=O)c2ccc(CN3CCN(C)CC3)cc2)cc1Nc1nccc(-c2cccnc2)n1` ?
A) 2.8

Q) May I ask what ΔTm has been recorded for COc1ccc2c(c1)/C(=C/c1cnc[nH]1)C(=O)N2 [SU-9516] ?
A) 2.7

Q) May I ask what ΔTm has been recorded for `O=C1Cc2c([nH]c3ccc([N+](=O)[O-])cc23)-c2ccccc2N1` ?
A) 1.6

Q) May I ask what ΔTm has been recorded for `Cc1cc2ncc(-c3ccccc3)nc2cc1C` ?
A) -0.1

Q) May I ask what ΔTm has been recorded for CN(C)c1ncnc2nc[nH]c12 [DIMETHYLADENINE] ?
A) 0.9

Q) May I ask what ΔTm has been recorded for Cc1c2ccncc2c(C)c2c1[nH]c1ccccc12 [ELLIPTECINE] ?
A) 4.3

---

target: Serine/threonine-protein kinase pim-1 (Homo sapiens) (UniProt P11309)
Sequence (P11309 whole entry, looked up): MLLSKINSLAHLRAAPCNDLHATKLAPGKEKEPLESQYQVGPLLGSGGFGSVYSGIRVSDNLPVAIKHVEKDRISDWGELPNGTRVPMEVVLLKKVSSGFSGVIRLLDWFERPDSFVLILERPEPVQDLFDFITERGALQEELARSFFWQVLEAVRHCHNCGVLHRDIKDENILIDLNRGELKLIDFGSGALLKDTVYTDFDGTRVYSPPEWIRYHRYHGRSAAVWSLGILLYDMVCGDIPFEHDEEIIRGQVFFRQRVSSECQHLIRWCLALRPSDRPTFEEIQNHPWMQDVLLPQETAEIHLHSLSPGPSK
Assignment: determine reported ΔTm for the given compounds.
Your answer should be a plain number; it is taken to be in °C.

Q) May I ask what ΔTm has been recorded for `O=S(=O)(c1cccc2c(Cl)cccc12)N1CCCNCC1` ?
A) 2.7

Q) May I ask what ΔTm has been recorded for `CC(C)n1cnc2c(NCc3ccccc3O)nc(NCCCO)nc21` ?
A) -1.3

Q) May I ask what ΔTm has been recorded for `O=C1Nc2ccc(I)cc2/C1=C1/Nc2ccccc2/C1=N\O` ?
A) 1.7

Q) May I ask what ΔTm has been recorded for `O=C1c2ccccc2-c2n[nH]c3cccc1c23` ?
A) 3.6

Q) May I ask what ΔTm has been recorded for CN1CCC(Nc2ncc3ncnc(Nc4ccc(F)c(Cl)c4)c3n2)CC1 [FALNIDAMOL] ?
A) 5.2

Q) May I ask what ΔTm has been recorded for `O=C1Nc2ccccc2/C1=C1/Nc2ccccc2/C1=N\O` ?
A) 4.5

Q) May I ask what ΔTm has been recorded for COc1cc2ncnc(Nc3ccc(NC(=O)c4ccccc4)cc3)c2cc1OC [ANILINOQUINAZOLINE1] ?
A) 0.7

Q) May I ask what ΔTm has been recorded for `O=c1cc(N2CCOCC2)oc2c1ccc1ccccc12` ?
A) 1.7

Q) May I ask what ΔTm has been recorded for `Cc1cc(Nc2nc(-c3ccccc3)nc3ccccc23)n[nH]1` ?
A) 1.7

Q) May I ask what ΔTm has been recorded for `O=[N+]([O-])c1ccc(-c2nc(-c3ccc(F)cc3)c(-c3ccncc3)[nH]2)cc1` ?
A) -1.2

Q) May I ask what ΔTm has been recorded for `O=C1Nc2ccc(I)cc2/C1=C\c1cc(Br)c(O)c(Br)c1` ?
A) 2.5

---

assay: Inhibition of Cdk4/cyclin D1
endpointName: Ki
// unit must come after the numeric part

Q) May I ask what Ki has been recorded for `Cc1nc(N)sc1-c1ccnc(Nc2cccc([N+](=O)[O-])c2)n1` ?
A) 53 nM

---

endpointName: ΔTm (°C)
Your answer should be a plain number; it is taken to be in °C.

Q) So what ΔTm did `O=c1cc(N2CCOCC2)oc2c(-c3ccccc3)cccc12` get with Cyclin-dependent kinase-like 1 (Homo sapiens) (UniProt Q00532)?
A) -0.5

Q) So what ΔTm did `O=C1Nc2ccccc2/C1=C/c1cnc[nH]1` get with Cyclin-dependent kinase-like 1 (Homo sapiens) (UniProt Q00532)?
A) 3.7

Q) So what ΔTm did COc1ccc2c(c[n+](C)c3c4cc5c(cc4ccc23)OCO5)c1OC [CHELERYTHRINE CHLORIDE] get with Cyclin-dependent kinase-like 1 (Homo sapiens) (UniProt Q00532)?
A) -3.5

Q) So what ΔTm did `CC(C)n1cnc2c(NCc3ccccc3O)nc(NCCCO)nc21` get with Cyclin-dependent kinase-like 1 (Homo sapiens) (UniProt Q00532)?
A) 0.1

Q) So what ΔTm did `O=C1C(Cl)=C(N2C(=O)CCC2=O)C(=O)c2ccccc21` get with Cyclin-dependent kinase-like 1 (Homo sapiens) (UniProt Q00532)?
A) -0.5

Q) So what ΔTm did `NCCNc1ncc(C(N)=O)c(Nc2cccc(C(F)(F)F)c2)n1` get with Cyclin-dependent kinase-like 1 (Homo sapiens) (UniProt Q00532)?
A) 0.6

Q) So what ΔTm did `COc1cc2ncnc(Nc3cccc(O)c3)c2cc1OC` get with Cyclin-dependent kinase-like 1 (Homo sapiens) (UniProt Q00532)?
A) -0.2

Q) So what ΔTm did `CCOc1cc2ncnc(Nc3cccc(Br)c3)c2cc1OCC` get with Cyclin-dependent kinase-like 1 (Homo sapiens) (UniProt Q00532)?
A) 0

Q) So what ΔTm did `Clc1ccc(Nc2nnc(Cc3ccncc3)c3ccccc23)cc1` get with Cyclin-dependent kinase-like 1 (Homo sapiens) (UniProt Q00532)?
A) 0.4

Q) So what ΔTm did `Nc1nccc(-c2c(-c3ccc(F)cc3)ncn2C2CCNCC2)n1` get with Cyclin-dependent kinase-like 1 (Homo sapiens) (UniProt Q00532)?
A) 0.4

Q) So what ΔTm did `Cn1cc(C2=C(c3cn(CCCSC(=N)N)c4ccccc34)C(=O)NC2=O)c2ccccc21` get with Cyclin-dependent kinase-like 1 (Homo sapiens) (UniProt Q00532)?
A) 2.2

---

target: Cyclin-dependent kinase 6 (Homo sapiens) (UniProt Q00534)
Sequence (Q00534 whole entry): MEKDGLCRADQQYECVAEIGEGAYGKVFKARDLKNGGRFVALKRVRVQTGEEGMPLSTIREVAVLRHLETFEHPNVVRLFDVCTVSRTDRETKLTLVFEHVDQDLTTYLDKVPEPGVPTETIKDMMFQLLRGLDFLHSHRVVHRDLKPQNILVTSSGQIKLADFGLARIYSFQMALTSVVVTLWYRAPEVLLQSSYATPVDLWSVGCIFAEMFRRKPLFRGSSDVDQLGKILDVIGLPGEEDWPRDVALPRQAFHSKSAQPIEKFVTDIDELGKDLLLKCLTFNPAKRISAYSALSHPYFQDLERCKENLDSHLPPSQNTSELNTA
Is ΔTm at least 2 °C? Then 1. If not, 0.

Q) Is ΔTm for COC(=O)[C@]1(O)C[C@@H]2O[C@@]1(C)n1c3ccccc3c3c4c(c5c6ccccc6n2c5c31)C(=O)NC4 (single isomer, unassigned) at or above 2 °C?
A) 1

Q) Is ΔTm for `COc1cc(OC)c(/C=C2\C(=O)Nc3ccccc32)c(OC)c1` at or above 2 °C?
A) 0

Q) Is ΔTm for `O=c1cc(N2CCOCC2)oc2c(-c3ccccc3)cccc12` at or above 2 °C?
A) 0

Q) Is ΔTm for `CN(c1cccnc1)c1cc2c(Nc3ccc(F)c(Cl)c3)c(C#N)cnc2cn1` at or above 2 °C?
A) 0

Q) Is ΔTm for `CCN(CC)CCNC(=O)c1c(C)[nH]c(/C=C2\C(=O)Nc3ccc(F)cc32)c1C` at or above 2 °C?
A) 1

Q) Is ΔTm for `Cc1nc(N)sc1-c1ccnc(Nc2cccc([N+](=O)[O-])c2)n1` at or above 2 °C?
A) 1

Q) Is ΔTm for `O=C1NC(=O)C(c2c[nH]c3ccccc23)=C1c1c[nH]c2ccccc12` at or above 2 °C?
A) 0

Q) Is ΔTm for `CCOC(=O)c1c(C)[nH]c(/C=C2\C(=O)Nc3ccccc32)c1C` at or above 2 °C?
A) 0

Q) Is ΔTm for `N#C/C(=C\c1ccc(O)c(O)c1)C(=O)Nc1ccccc1` at or above 2 °C?
A) 0

Q) Is ΔTm for `COc1ccc2c(c1)/C(=C/c1cnc[nH]1)C(=O)N2` at or above 2 °C?
A) 1

---

target: UniProt Q00536
Sequence (Q00536 whole entry): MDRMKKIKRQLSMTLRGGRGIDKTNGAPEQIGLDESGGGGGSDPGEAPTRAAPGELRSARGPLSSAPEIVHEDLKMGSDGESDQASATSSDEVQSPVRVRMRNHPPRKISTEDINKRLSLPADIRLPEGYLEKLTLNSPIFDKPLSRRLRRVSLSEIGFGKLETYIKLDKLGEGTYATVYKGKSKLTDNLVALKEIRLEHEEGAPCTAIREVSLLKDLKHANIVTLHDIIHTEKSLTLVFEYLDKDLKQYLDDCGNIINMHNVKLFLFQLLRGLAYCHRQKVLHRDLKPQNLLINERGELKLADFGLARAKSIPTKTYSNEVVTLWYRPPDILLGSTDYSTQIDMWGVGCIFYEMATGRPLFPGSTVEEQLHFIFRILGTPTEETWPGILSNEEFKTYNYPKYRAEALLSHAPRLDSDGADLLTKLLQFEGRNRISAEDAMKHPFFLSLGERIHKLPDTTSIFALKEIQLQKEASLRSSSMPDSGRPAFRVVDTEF
// classify(record): look up ΔTm in ranges bin 0 = under 0.4 °C, bin 1 = from 0.4 °C up to 3 °C, bin 2 = 3 °C and over

Q) // return the class label for `O=C1NC(=O)c2c1c1c3ccccc3n3c1c1c2c2ccccc2n1C1CCC3O1`
A) bin 0

Q) // return the class label for `CC(C)N(CCO)c1nc(Nc2cccc(Cl)c2)c2ncn(C(C)C)c2n1`
A) bin 1

Q) // return the class label for `O=C1Nc2ccccc2/C1=C/c1cnc[nH]1`
A) bin 2

Q) // return the class label for `Cc1nc(N)sc1-c1ccnc(Nc2cccc([N+](=O)[O-])c2)n1`
A) bin 2

Q) // return the class label for `CN(c1cccnc1)c1cc2c(Nc3ccc(F)c(Cl)c3)c(C#N)cnc2cn1`
A) bin 0

Q) // return the class label for `NC1=N/C(=C2/CCNC(=O)c3[nH]ccc32)C(=O)N1`
A) bin 0

Q) // return the class label for `Cc1cc(C=C2C(=O)C=CC2=O)cc(C)c1O`
A) bin 1

Q) // return the class label for `Nc1nccc(-c2c(-c3ccc(F)cc3)ncn2C2CCNCC2)n1`
A) bin 1

Q) // return the class label for `COc1ccc2c(c1)/C(=C/c1cnc[nH]1)C(=O)N2`
A) bin 2

Q) // return the class label for `N#C/C(=C1/Nc2ccccc2S1)c1ccnc(NCCc2cccnc2)n1`
A) bin 2
